Test system: relapsed AML cells
Assay: Drug sensitivity assay, 1,536-well, 3-day culture with individual approved drugs at 10 μM, viability by alamarBlue
Format: cell-based, human
Conditions: number of relapsed AML cases out of 18 tested with >70% cell death; 10 μM, 3-day culture
Where a name gives a salt, the structure may show the parent alone.
For each record, write down the corresponding #Cases >70% cell death.
Reply with the value as a number alone.

Q. State, in one line, measured #Cases >70% cell death of `CC[C@H](C)C(=O)O[C@H]1C[C@@H](C)C=C2C=C[C@H](C)[C@H](CC[C@@H]3C[C@@H](O)CC(=O)O3)[C@H]21`
A. 2

Q. Assign #Cases >70% cell death to the following record: C[C@@H](NCCCc1cccc(C(F)(F)F)c1)c1cccc2ccccc12 [AMG-073 HCL]
A. 1

Q. State its #Cases >70% cell death: `COc1cc(NS(C)(=O)=O)ccc1Nc1c2ccccc2nc2ccccc12`
A. 4

Q. Identify measured #Cases >70% cell death corresponding to `Nc1ccn([C@@H]2O[C@H](CO)[C@@H](O)[C@@H]2O)c(=O)n1`
A. 16

Q. Annotate the compound `Cc1ccc(C(=O)N(CCCN)[C@@H](c2oc3cc(Cl)ccc3c(=O)c2Cc2ccccc2)C(C)C)cc1` with its measured #Cases >70% cell death.
A. 18

Q. Quick one: give measured #Cases >70% cell death for O=C1NCC2(CCN(CCc3ccccc3)CC2)O1 [FENSPIRIDE]
A. 3

Q. Please list #Cases >70% cell death recorded for the compound `N#C[C@@H]1C[C@@H]2C[C@@H]2N1C(=O)[C@@H](N)C12CC3CC(CC(O)(C3)C1)C2`
A. 1

Q. Give reported #Cases >70% cell death value for `O=C(c1ccc(OCCN2CCCCC2)cc1)c1c(-c2ccc(O)cc2)sc2cc(O)ccc12`
A. 3

Q. # return recorded #Cases >70% cell death for input `CC(=O)O[C@@]12CO[C@@H]1C[C@H](O)[C@@]1(C)C(=O)[C@H](O)C3=C(C)[C@@H](OC(=O)[C@H](O)[C@@H](NC(=O)OC(C)(C)C)c4ccccc4)C[C@@](O)([C@@H](OC(=O)c4ccccc4)[C@H]21)C3(C)C`
A. 5

Q. Return value of #Cases >70% cell death for input `C[C@H]1O[C@@H](O[C@H]2[C@@H](O)C[C@H](O[C@H]3[C@@H](O)C[C@H](O[C@H]4CC[C@@]5(C)[C@H](CC[C@@H]6[C@@H]5C[C@@H](O)[C@]5(C)[C@@H](C7=CC(=O)OC7)CC[C@]65O)C4)O[C@@H]3C)O[C@@H]2C)C[C@H](O)[C@@H]1O` , no commentary.
A. 18

Q. Return #Cases >70% cell death for the following compound: CC(C)n1c(/C=C/C(O)CC(O)CC(=O)O)c(-c2ccc(F)cc2)c2ccccc21 (stereo not drawn)
A. 7

Q. Note #Cases >70% cell death for the compound shown: COc1cc(NC(C)CCCN)c2ncccc2c1 (stereo not drawn)
A. 12
